Test system: Leishmania donovani
Experiment: Leishmania intramacrophage assay
Assay type: functional, organism-based
Parameters: scale not given: in the data most compounds retested in dose-response had high values
Conditions: 30 µM; 30.03 µM
The whole screen tested about 69,000 compounds, of which about 1,000 (1.4%) showed an effect of 50% or more. Shown is part of a subset that was picked to be rich in strong results.
Recorded Percent Effect values for a group of compounds are listed next.
VALUE_TYPE: Percent Effect (%)

[
  {
    "COMPOUND": "CC(O)CN1CCN(C(=O)c2ccc(N(C)C)nc2)CC1 (stereo not given)",
    "RECORDED_VALUE": 21.97
  },
  {
    "COMPOUND": "CS(=O)(=O)c1ccc(CNC(=O)N2CCC(c3ccccc3)CC2)cc1",
    "RECORDED_VALUE": -1.511
  },
  {
    "COMPOUND": "O=C1[C@H]2CC[C@H](CN(C3CSCCSC3)C2)N1Cc1cscn1",
    "RECORDED_VALUE": -11.37
  },
  {
    "COMPOUND": "Cn1ncc2c1CN(Cc1cccnc1)CC2COCC1CC1.O=C(O)C(F)(F)F.O=C(O)C(F)(F)F.O=C(O)C(F)(F)F (stereo not given)",
    "RECORDED_VALUE": 26.28
  },
  {
    "COMPOUND": "CN(C)C(=O)CNC(=O)c1ccc(Cl)cc1F",
    "RECORDED_VALUE": -10.55
  }
]

---

System: Leishmania donovani
Test: Leishmania intramacrophage assay
Format: functional, organism-based
Design: scale not given: in the data most compounds retested in dose-response had high values
Conditions: 30.3 µM; […]
About 1,000 (1.4%) of roughly 69,000 compounds showed an effect of 50% or more. For the sample, strong results were picked, then their nearest neighbours and some compounds at random.
VALUE_TYPE: Percent Effect (%)

[
  {
    "MOLECULE": "FC(F)(F)c1nc(NC2CCc3ncnn3C2)c2ccccc2n1 (centres undefined)",
    "RECORDED_VALUE": -21.34
  },
  {
    "MOLECULE": "Cc1nc(N2CCCC2)ncc1-c1cc(O)nc(N2CCCCC2)n1",
    "RECORDED_VALUE": -14.51
  },
  {
    "MOLECULE": "COc1ccc(-c2ccnc3nc(N4CCCC4)[nH]c(=O)c23)cc1OC",
    "RECORDED_VALUE": 26.43
  },
  {
    "MOLECULE": "CCN(C)C(=O)CN1CCC(c2cc(N3CCOCC3)nc(C)n2)CC1",
    "RECORDED_VALUE": -1.668
  },
  {
    "MOLECULE": "Cc1ccc(Cl)cc1NCc1nc2n(n1)CCCCC2",
    "RECORDED_VALUE": 5.268
  },
  {
    "MOLECULE": "CN(C)c1ccc(C(=O)N2CCC(c3cc4ncccc4[nH]3)CC2)cc1",
    "RECORDED_VALUE": -1.505
  },
  {
    "MOLECULE": "CCCc1cc(N2CCC(N[C@H]3CC[C@H](O)CC3)CC2)nc(C)n1",
    "RECORDED_VALUE": 8.442
  },
  {
    "MOLECULE": "CCC[C@@H]1CN(c2cncc(C(=O)N3CCOCC3)n2)C[C@H]1N(C)C",
    "RECORDED_VALUE": 5.453
  },
  {
    "MOLECULE": "CC(C)c1cc(C(F)(F)F)n2nc(C3CCN(S(C)(=O)=O)C3)cc2n1 (centres undefined)",
    "RECORDED_VALUE": 14.63
  },
  {
    "MOLECULE": "O=C(CN1CCCC(c2ccn[nH]2)C1)Nc1nc2c(s1)CCCC2 (centres undefined)",
    "RECORDED_VALUE": 57.39
  },
  {
    "MOLECULE": "CN(C)CCNCCC(c1ccccc1)C1CCOC(C)(C)C1.O=C(O)C(=O)O (centres undefined)",
    "RECORDED_VALUE": 94.59
  },
  {
    "MOLECULE": "c1coc(-c2nc3c(c(NCc4n[nH]c5c4CCC5)n2)CCNCC3)c1",
    "RECORDED_VALUE": 1.11
  },
  {
    "MOLECULE": "O=C(COc1ccccc1)NCC1CCN(Cc2ccsc2)CC1",
    "RECORDED_VALUE": 8.301
  },
  {
    "MOLECULE": "COc1cccc(CN(C)C(=O)c2ccc(NC(C)=O)s2)c1OC",
    "RECORDED_VALUE": 52.82
  },
  {
    "MOLECULE": "COc1cc(N2CC[C@@H](O)[C@@H]2Cc2ccccc2)ncn1",
    "RECORDED_VALUE": 51.86
  },
  {
    "MOLECULE": "CC(C)CCNC(=O)c1c(-n2cnnn2)sc2c1CCCC2",
    "RECORDED_VALUE": -26.12
  },
  {
    "MOLECULE": "O=C([C@@H]1C[C@@H]2CCN(C3CCOCC3)C[C@@H]2O1)N1CCOCC1",
    "RECORDED_VALUE": 9.764
  },
  {
    "MOLECULE": "CN(C)c1nccc(C2CCCCN2Cc2cnn3cccnc23)n1 (centres undefined)",
    "RECORDED_VALUE": 15.49
  },
  {
    "MOLECULE": "CN(C)CCCNC(=O)C(c1cccc(F)c1)N(C)C (centres undefined)",
    "RECORDED_VALUE": 17.93
  },
  {
    "MOLECULE": "Cc1nc(CN2C[C@@H]3CCCO[C@@H]3[C@H](NC(=O)CC3CC3)C2)cs1.O=C(O)C(F)(F)F",
    "RECORDED_VALUE": 13.13
  },
  {
    "MOLECULE": "CN(C)CCNCCC(Cc1ccccc1)C1CCOC(C)(C)C1.O=C(O)C(=O)O (centres undefined)",
    "RECORDED_VALUE": 11.95
  },
  {
    "MOLECULE": "COc1ccc(F)cc1-c1ccccc1CC1(C(=O)O)CCOCC1",
    "RECORDED_VALUE": -18.67
  },
  {
    "MOLECULE": "CC(CCc1ccccc1)NC(=O)CNCCCN(C)C.O=C(O)C(=O)O (centres undefined)",
    "RECORDED_VALUE": -24.91
  },
  {
    "MOLECULE": "c1ccc(-c2nc3c(c(NCc4nnc5n4CCC5)n2)CCNC3)cc1",
    "RECORDED_VALUE": 11
  },
  {
    "MOLECULE": "COc1cc(N2CC[C@H](O)[C@@H]2Cc2cccnc2)ncn1",
    "RECORDED_VALUE": 5.968
  },
  {
    "MOLECULE": "C=Cc1ccc(CN2CCCC3(CNC(=O)c4ccccc4O3)C2)cc1 (centres undefined)",
    "RECORDED_VALUE": -7.721
  },
  {
    "MOLECULE": "CC(C)c1ccc(CN2C(=O)C3(CCNCC3)Nc3ccccc32)cc1",
    "RECORDED_VALUE": 100.4
  },
  {
    "MOLECULE": "CC(=O)Nc1ccc(C(=O)N(C)Cc2cccc(F)c2)s1",
    "RECORDED_VALUE": -28.94
  },
  {
    "MOLECULE": "c1ccc(-c2nc3c(c(NCc4n[nH]c5c4CCC5)n2)CCNC3)cc1",
    "RECORDED_VALUE": 100.2
  }
]

---

# Percent Effect per record follows
Tested on: Leishmania donovani
Test: Leishmania intramacrophage assay
Type: functional, organism-based
Design: scale not given: in the data most compounds retested in dose-response had high values
Settings: 30 µM
The campaign covered roughly 69,000 compounds. About 1,000 (1.4%) showed an effect of 50% or more. What follows is part of a selection rich in strong results, with near analogues and random picks from the rest.

[
  {
    "COMPOUND": "Cc1noc(CN2CCN(C(=O)N(C)C)CC2)n1",
    "TARGET_SYSTEM": "Leishmania donovani",
    "Percent Effect (%)": 8.701
  },
  {
    "COMPOUND": "Cc1ccc(-c2noc(CN3CCC(N4CCNC4=O)CC3)n2)cc1",
    "TARGET_SYSTEM": "Leishmania donovani",
    "Percent Effect (%)": 33.86
  },
  {
    "COMPOUND": "Cc1ccsc1CNC1CCCN(Cc2noc(C3CC3)n2)C1 (stereo not drawn)",
    "TARGET_SYSTEM": "Leishmania donovani",
    "Percent Effect (%)": 29.68
  },
  {
    "COMPOUND": "Cc1ccc(C(=O)N2CCC(Oc3ccccc3)CC2)c(=O)[nH]1",
    "TARGET_SYSTEM": "Leishmania donovani",
    "Percent Effect (%)": 12.56
  },
  {
    "COMPOUND": "CC(=O)N(Cc1ncc(C(C)C)o1)C1CCN(Cc2cc(C)no2)C1 (stereo not drawn)",
    "TARGET_SYSTEM": "Leishmania donovani",
    "Percent Effect (%)": 25.52
  },
  {
    "COMPOUND": "NC(=O)Cn1cc(NC(=O)N2CCSCC2)cn1",
    "TARGET_SYSTEM": "Leishmania donovani",
    "Percent Effect (%)": -2.179
  },
  {
    "COMPOUND": "Cn1ccnc1CN1CCCN(C(=O)c2ccc(O)nc2)CC1",
    "TARGET_SYSTEM": "Leishmania donovani",
    "Percent Effect (%)": 25.73
  },
  {
    "COMPOUND": "CCOCC(O)CN1CCN(C(=O)c2cc(C)ccc2F)CC1 (stereo not drawn)",
    "TARGET_SYSTEM": "Leishmania donovani",
    "Percent Effect (%)": -8.817
  },
  {
    "COMPOUND": "Cc1nc(CN(C)C2CCN(Cc3ccc(C(N)=O)cc3)C2)no1 (stereo not drawn)",
    "TARGET_SYSTEM": "Leishmania donovani",
    "Percent Effect (%)": 31.74
  },
  {
    "COMPOUND": "O=C(c1ccc(Cn2ccccc2=O)o1)N1CCSCC1",
    "TARGET_SYSTEM": "Leishmania donovani",
    "Percent Effect (%)": 34.1
  },
  {
    "COMPOUND": "COCc1ccc(CNc2cncc(-n3cccn3)n2)cc1",
    "TARGET_SYSTEM": "Leishmania donovani",
    "Percent Effect (%)": 27.73
  },
  {
    "COMPOUND": "CNC(=O)COc1ccc(CNc2cncc(-n3cccn3)n2)cc1",
    "TARGET_SYSTEM": "Leishmania donovani",
    "Percent Effect (%)": 19.22
  },
  {
    "COMPOUND": "Cc1cc(NC(=O)CN2CCn3c(nnc3C(C)C)C2)n(C)n1",
    "TARGET_SYSTEM": "Leishmania donovani",
    "Percent Effect (%)": -15.63
  }
]
